- System: HOP-18 NSCLC
- Test description: NCI tumour cell line growth inhibition, 48 h
Below is a list of entries, each paired with its recorded TGI value.

In the examples that follow, each entry is paired with its recorded TGI.
Compound	TGI
O=C1OC2(c3ccccc3Oc3ccccc32)c2ccccc21	> 100 µM
COc1ccc(/C=C2/C[N+](C)(C)C/C(=C/c3ccc(OC)cc3)C2=O)cc1	> 100 µM

Recorded TGI for CCN(CC)Cc1cc(Nc2c3ccccc3nc3c2[nH]c2ccccc23)ccc1O , please? 5.39 µM

Please do the same for CCOC(=O)CC1=CSC2=NCCN12 as well. > 100 µM

Please do the same for COc1ccc(C2C(Cl)C(=O)N2NC(=O)Cc2ccccc2)cc1 (stereo not given) as well. > 100 µM

Please do the same for ON=C1CCC(c2ccccc2)CC1 (stereo not given) as well. > 100 µM

Please do the same for CC1=Cc2cc3[n-]c(cc4nc(cc5[n-]c(cc1n2)cc5C)C(C)=C4CCC(=O)O)c(CCC(=O)O)c3C.[Pd+2] as well. 30.6 µM

Please do the same for [C-]#[O+].[C-]#[O+].[Ir].[O-]c1cccc2cccnc12 as well. > 100 µM

Please do the same for Cc1c2cc[nH]c(=O)c2cc2c(=O)c3cnccc3[nH]c12 as well. > 100 µM

Please do the same for CCOC(=O)CC[C@@H](NC(=O)c1ccc(N[C@@H]2c3cc4c(cc3C(c3cc(OC)c(O)c(OC)c3)C3C(=O)OC[C@@H]32)OCO4)cc1)C(=O)OCC (stereo not given in full) as well. > 10 µM

----------
Below is a list of entries, each paired with its recorded TGI value.
- Test system: EKVX NSCLC
- Test description: NCI tumour cell line growth inhibition, 48 h

In the examples that follow, each entry is paired with its recorded TGI.
Molecule	Target under test	TGI
O=C(O)CN1CCN(CC(=O)O)CCN(CC(=O)O)CCN(CC(=O)O)CC1	EKVX NSCLC	> 100 µM
O=C1c2ccccc2-c2c1c1ccccc1c(=O)n2CCNCCNCCn1c2c(c3ccccc3c1=O)C(=O)c1ccccc1-2	EKVX NSCLC	27.2 µM

Recorded TGI for COC[n+]1cc2cc(OC)c(OC)cc2c2ccc3cc(OC)c(OC)cc3c21 , please? > 100 µM

Please do the same for O=C(c1ccncc1)n1nc(-c2ccccc2)c(N=Nc2ccc([N+](=O)[O-])cc2)c1-c1ccccc1 as well. 45.8 µM

Please do the same for CC(C)CC1c2[nH]c3ccccc3c2C[C@H]2C(=O)NC(CCC(=O)OC(C)(C)C)C(=O)N12 (some centres undefined) as well. > 100 µM

Please do the same for C=C(C)[C@@H]1CC[C@]2(C(=O)O)CC[C@]3(C)[C@H](CC[C@@H]4[C@@]5(C)CC[C@H](C(=O)/C=C/c6ccc(O)cc6)C(C)(C)[C@@H]5CC[C@]43C)[C@@H]12 as well. 24.4 µM

Please do the same for C=C1C(=O)OC2C1C(OC(=O)/C(C)=C/C)CC1(C)C(=O)CCC(=C)C21 (centres undefined) as well. 33.8 µM

Please do the same for O=C(O)c1cc2c(cn1)[nH]c1ccccc12 as well. > 100 µM

Please do the same for CC1NOC(=O)C1N=Nc1ccccc1Cl (centres undefined) as well. > 100 µM

Please do the same for COC(=O)C1(O)c2ccccc2N=C2C(=O)c3ccccc3N21 (centres undefined) as well. > 100 µM

Please do the same for CCOC(=O)c1ccc(N2C(=O)/C(=C\OC)c3ccccc3C2=O)cc1 as well. > 100 µM

Please do the same for COc1ccc(/C=C\c2cc(OC)c(OC)c(OC)c2)cc1OCC(=O)Nc1nc2ccc(C(F)(F)F)cc2s1 as well. > 100 µM

Please do the same for CCCCc1c2c(nc3c1CCC/C3=C\c1ccccc1)C(=O)C(CN(C)C)CC2 (centres undefined) as well. 36.1 µM

Please do the same for O=C(Nc1ncc(Cc2ccccc2Cl)s1)c1ccc2c(c1)OCCO2 as well. > 100 µM

----------
- Tested on: COLO 205 colon
- Test description: NCI tumour cell line growth inhibition, 48 h
Observable: TGI

In the examples that follow, each entry is paired with its recorded TGI.
Compound	TGI
COC(=O)c1nc(NC#N)[nH]c(=O)c1C	> 100 µM
CCCNC(=S)/N=C\c1c(O)c2ccccc2oc1=O	> 100 µM
COc1cc(-c2coc3c(OC)c(OC4OC(CO)C(O)C(O)C4O)c(OC)cc3c2=O)cc(OC)c1C (centres undefined)	> 54.2 µM
O=P(O)(Cc1ccccc1)OCC1(O)OCC(O)C(O)C1O (centres undefined)	> 10 µM
CC(C)C(N=Cc1ccccc1O)C(=O)O (centres undefined)	> 100 µM
COC(=O)C(Nc1ccc(OC)cc1)c1ccccc1 (centres undefined)	> 100 µM
CCN(CC)CCCCCCCNc1c2ccc(Cl)cc2nc2ccc(OC)cc12	2.48 µM
COc1cc(/C=C/C(=O)c2ccc(Cl)cc2)ccc1OS(=O)(=O)c1ccc(C)cc1	39.7 µM
Cc1cc2c(F)c(Oc3ncnn4cc(OC[C@@H](C)OC(=O)[C@H](C)N)c(C)c34)ccc2[nH]1	25.1 µM
CC1OC(O[C@H]2CC[C@]3(C)[C@H]4CC=C5[C@@H]6[C@@H](C)[C@H](C)CC[C@]6(C(=O)O)CC[C@@]5(C(=O)O)[C@]4(C)CC[C@H]3C2(C)C)C(O)C(O)C1O (some centres undefined)	> 75 µM

Recorded TGI for O=S(=O)(c1ccc(I)cc1)N(c1ccccc1)S(=O)(=O)C(F)(F)C(F)(F)C(F)(F)C(F)(F)F , please? > 100 µM

Please do the same for COc1ccc(-c2nc(-c3cn(C)c4ncccc34)cs2)cc1 as well. > 100 µM

Please do the same for CCN(CC)Cc1cc(Nc2c3ccccc3nc3c2[nH]c2ccccc23)ccc1O as well. 2.19 µM

----------
- Tested on: K-562 leukemia
- Test description: NCI tumour cell line growth inhibition, 48 h; in the data active means GI50 below about 0.43 µM; inactive means the rest
Your reply should match one of these outcome classes. active, inactive

Examples from the recorded data:
Molecule	Target under test	Class name
CN(C)Cc1ccc(C(=O)Nc2ccc3ncnc(Nc4ccc(Oc5cccc(F)c5)c(Cl)c4)c3c2)cc1	K-562 leukemia	inactive
CCSc1nc(N=Cc2cccs2)c2cn[nH]c2n1	K-562 leukemia	inactive
CC1(C)N=C(N)N=C(N)N1c1cc(Cl)ccc1Cl	K-562 leukemia	inactive
C[N+](C)(CCCCCC[N+](C)(C)CCCN1C(=O)c2cc3ccccc3cc2C1=O)CCCN1C(=O)c2ccccc2C1=O	K-562 leukemia	inactive
CCOC(=O)Oc1c(OC)cc(C(=O)O[C@@H]2C[C@@H]3CN4CCc5c([nH]c6cc(OC)ccc56)[C@H]4C[C@@H]3[C@H](C(=O)OC)[C@H]2OC)cc1OC	K-562 leukemia	inactive
O=C(Nc1ccc(Cl)cc1)c1cc2ccccc2cc1O	K-562 leukemia	inactive

Lab log entry: CN(C)CCCNC(=O)c1cc(NC(=O)c2cc(NC(=O)c3cc(NC(=O)CCc4c[nH]c5ccccc45)cn3C)cn2C)cn1C — outcome as called in the assay? inactive

Please do the same for C[C@H]1CCC/C=C/[C@@H]2C[C@H](O)C[C@H]2[C@H](O)[C@@H](S(=O)CCN(C)C)CC(=O)O1 (stereo not given in full) as well. inactive

Please do the same for COc1ccc(-c2nc(-c3ccccc3)c(-c3ccccc3)n2C2CC2)cc1OC1CCCC1 as well. inactive

Please do the same for COc1ccc(-c2cn[nH]c2-c2cc(OC)c(OC)c(OC)c2)cc1N as well. active

----------
Below is a list of entries, each paired with its recorded TGI value.
- Test system: MDA-MB-435
- Test description: NCI tumour cell line growth inhibition, 48 h
Quick note: give the figure in µM, leave out the unit.

In the examples that follow, each entry is paired with its recorded TGI.
Compound	Unit abbrev	TGI
CCN(CC)CCOc1ccc(/C=C2\CC3C4CC=C5C[C@@H](N6CCCC6)CC[C@]5(C)C4CC[C@]3(C)[C@H]2O)cc1OC (stereo partly specified)	µM	14.5
O=C1CCC2(C=C(Br)C(=O)C(Br)=C2)O1	µM	11.3
CC(NNC(=S)N1CCCCCC1)c1ccc2ccccc2n1 (stereo unspecified)	µM	21.4

Turning now to a further compound:
Recorded TGI for COc1ccc(/C=C\c2cc(OC)c(OC)c(OC)c2)cc1OCC(=O)Nc1nc2ccc(C(F)(F)F)cc2s1 , please? 5.91

----------
- System: OVCAR-5 ovarian
- Test description: NCI tumour cell line growth inhibition, 48 h; in the data active = GI50 below about 0.43 µM; inactive = the rest
Your reply should match one of these outcome classes. Y = active, N = inactive

Examples from the recorded data:
Molecule	Class name
C[C@H]1CCC/C=C/[C@@H]2C[C@H](O)C[C@H]2[C@H](O)[C@@H](S(=O)CCN(C)C)CC(=O)O1 (stereo partly specified)	Y
Cc1[nH]c(/C=C2\C(=O)Nc3ccc(F)cc32)c(C)c1C(=O)NC[C@H](O)CN1CCOCC1	N
Cc1cc(S(=O)(=O)Nc2nnc(-c3ccccc3)c(-c3ccccc3)n2)c(SCc2ccccc2)cc1Cl	N
COC(=O)/C(=C\c1c(C)[nH]c2ccccc12)S(=O)(=O)c1ccccc1	N

Moving on to another molecule below.
Lab log entry: O=C(Nc1ccc(Cl)cc1)c1cc2ccccc2cc1O — outcome as called in the assay? N
